# Assay System: Bromodomain testis-specific protein (Homo sapiens, UniProt Q58F21)
# Protocol Text: Inhibition of human BRDT bromodomain 2 by BROMOscan assay
Property Measured: pIC50
// pIC50: -log10(molar conc.)

Prompt: Using the record for CC(=O)N1c2ccc(-c3ccc(C(=O)O)cc3)cc2[C@H](Nc2ccc(Cl)cc2)C[C@@H]1C , report its pIC50.
Response: 4.50

* * *

# Assay System: Protein polybromo-1 (Homo sapiens, UniProt Q86U86)
# Sequence (Q86U86 whole entry): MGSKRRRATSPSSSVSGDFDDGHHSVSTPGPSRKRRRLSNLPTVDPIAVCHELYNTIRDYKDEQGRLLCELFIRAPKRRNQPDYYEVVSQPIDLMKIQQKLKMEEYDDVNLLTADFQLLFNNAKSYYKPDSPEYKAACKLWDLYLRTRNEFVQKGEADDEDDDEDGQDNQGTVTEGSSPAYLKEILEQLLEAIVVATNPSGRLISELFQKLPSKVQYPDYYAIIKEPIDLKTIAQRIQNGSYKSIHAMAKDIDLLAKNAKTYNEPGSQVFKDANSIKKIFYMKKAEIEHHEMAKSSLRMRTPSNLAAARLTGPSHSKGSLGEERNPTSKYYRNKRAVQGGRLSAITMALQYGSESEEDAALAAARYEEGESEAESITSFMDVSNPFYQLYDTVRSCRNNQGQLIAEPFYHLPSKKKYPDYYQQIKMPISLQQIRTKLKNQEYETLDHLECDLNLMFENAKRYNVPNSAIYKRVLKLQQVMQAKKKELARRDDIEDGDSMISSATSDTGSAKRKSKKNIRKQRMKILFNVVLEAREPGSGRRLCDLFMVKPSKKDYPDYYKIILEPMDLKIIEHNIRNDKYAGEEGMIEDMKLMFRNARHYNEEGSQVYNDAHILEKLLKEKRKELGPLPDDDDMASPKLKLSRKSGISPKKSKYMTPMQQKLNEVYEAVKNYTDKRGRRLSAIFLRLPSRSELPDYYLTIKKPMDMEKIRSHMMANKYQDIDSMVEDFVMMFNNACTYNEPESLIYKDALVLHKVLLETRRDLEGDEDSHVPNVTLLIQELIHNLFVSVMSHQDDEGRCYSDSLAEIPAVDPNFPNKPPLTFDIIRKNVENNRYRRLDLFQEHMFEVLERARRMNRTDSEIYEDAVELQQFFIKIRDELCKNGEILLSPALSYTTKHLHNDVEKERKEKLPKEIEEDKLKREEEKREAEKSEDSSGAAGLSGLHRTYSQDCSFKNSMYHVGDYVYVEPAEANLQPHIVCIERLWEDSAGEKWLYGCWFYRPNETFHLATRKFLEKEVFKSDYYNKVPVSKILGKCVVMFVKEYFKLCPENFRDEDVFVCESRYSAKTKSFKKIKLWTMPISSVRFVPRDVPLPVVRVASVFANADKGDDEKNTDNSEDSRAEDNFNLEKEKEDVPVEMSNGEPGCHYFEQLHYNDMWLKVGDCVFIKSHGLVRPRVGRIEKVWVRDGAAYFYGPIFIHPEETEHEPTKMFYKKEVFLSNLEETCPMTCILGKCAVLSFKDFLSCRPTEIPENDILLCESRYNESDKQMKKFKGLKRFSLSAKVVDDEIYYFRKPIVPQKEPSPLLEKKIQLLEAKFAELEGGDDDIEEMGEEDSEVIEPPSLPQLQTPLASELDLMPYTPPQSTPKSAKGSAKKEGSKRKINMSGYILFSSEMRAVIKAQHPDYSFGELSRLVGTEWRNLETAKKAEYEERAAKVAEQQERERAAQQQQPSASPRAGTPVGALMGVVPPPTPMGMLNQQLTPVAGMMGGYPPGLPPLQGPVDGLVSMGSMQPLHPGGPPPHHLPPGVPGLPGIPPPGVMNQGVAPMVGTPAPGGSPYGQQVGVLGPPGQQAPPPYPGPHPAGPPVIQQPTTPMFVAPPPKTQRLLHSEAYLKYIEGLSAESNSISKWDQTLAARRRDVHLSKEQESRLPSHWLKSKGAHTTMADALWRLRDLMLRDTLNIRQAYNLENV
# Protocol Text: Inhibition of human PBRM1 bromodomain 1 by BROMOscan assay
Property Measured: pIC50
// pIC50: -log10(molar conc.)

Prompt: Using the record for CC(=O)N1c2ccc(-c3ccc(C(=O)O)cc3)cc2[C@H](Nc2ccc(Cl)cc2)C[C@@H]1C , report its pIC50.
Response: 6.20

* * *

# Protocol Text: Oral bioavailability in Cynomolgus monkey at 2 mg/kg
# Assay type: ADME, organism-based, Macaca fascicularis
# Measurement Conditions: in vivo
Property Measured: bioavailability

Prompt: Using the record for CC(=O)N1c2ccc(-c3ccc(C(=O)O)cc3)cc2[C@H](Nc2ccc(Cl)cc2)C[C@@H]1C , report its bioavailability.
Response: 103%

* * *

# Protocol Text: AUC (0 to t) in Balb/c mouse at 3 mg/kg, po
# Assay type: ADME, organism-based
# Design: dose 3 mg/kg, route oral
# Measurement Conditions: plasma
Property Measured: AUC(0-t) (ng·h/mL)
A number alone suffices; assume ng·h/mL.

Prompt: Using the record for CC(=O)N1c2ccc(-c3ccc(C(=O)O)cc3)cc2[C@H](Nc2ccc(Cl)cc2)C[C@@H]1C , report its AUC(0-t).
Response: 6030

* * *

# Assay System: Nucleosome-remodeling factor subunit BPTF (Homo sapiens)
# Protocol Text: Inhibition of human BPTF by BROMOscan assay
Property Measured: IC50

Prompt: Using the record for CC(=O)N1c2ccc(-c3ccc(C(=O)O)cc3)cc2[C@H](Nc2ccc(Cl)cc2)C[C@@H]1C , report its IC50.
Response: > 31.6 µM

* * *

# Assay System: Cytochrome P450 3A4 (Homo sapiens, UniProt P08684)
# Sequence (P08684 whole entry): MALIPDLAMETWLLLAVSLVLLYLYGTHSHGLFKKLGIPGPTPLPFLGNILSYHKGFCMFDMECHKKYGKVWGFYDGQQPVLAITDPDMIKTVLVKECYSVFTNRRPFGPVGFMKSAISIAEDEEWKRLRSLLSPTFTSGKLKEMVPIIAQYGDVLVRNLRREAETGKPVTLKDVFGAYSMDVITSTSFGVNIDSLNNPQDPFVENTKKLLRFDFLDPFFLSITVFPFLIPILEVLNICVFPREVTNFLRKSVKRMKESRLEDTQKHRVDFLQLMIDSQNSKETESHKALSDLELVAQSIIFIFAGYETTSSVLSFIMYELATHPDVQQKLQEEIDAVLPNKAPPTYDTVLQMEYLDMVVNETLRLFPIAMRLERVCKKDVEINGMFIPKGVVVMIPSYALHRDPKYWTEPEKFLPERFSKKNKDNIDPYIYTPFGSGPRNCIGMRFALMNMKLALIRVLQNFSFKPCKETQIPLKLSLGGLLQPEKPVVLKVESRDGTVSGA
# Protocol Text: Inhibition of human recombinant CYP3A4 expressed in Escherichia coli bactosomes using 7-benzloxyquinolone as substrate after 10 mins by fluorescence assay
# Type: ADME
Property Measured: pIC50
// pIC50: -log10(molar conc.)

Prompt: Using the record for CC(=O)N1c2ccc(-c3ccc(CN4CCCCC4)cc3)cc2[C@H](Nc2ccccc2)C[C@@H]1C , report its pIC50.
Response: 5.00

* * *

# Protocol Text: Terminal half life in beagle dog at 1 mg/kg, iv as infusion
# Format: ADME, organism-based, Canis lupus familiaris
# Set-up: dose 1 mg/kg, route intravenous
# Measurement Conditions: in vivo, read-out: beta t1/2 (converted)
Property Measured: half-life (h)
A number alone suffices; assume h.

Prompt: Using the record for CC(=O)N1c2ccc(-c3ccc(C(=O)O)cc3)cc2[C@H](Nc2ccc(Cl)cc2)C[C@@H]1C , report its half-life.
Response: 1.8

* * *

# Assay System: Bromodomain-containing protein 2 (Homo sapiens, UniProt P25440)
# Sequence (P25440 whole entry, the tested form may be a part): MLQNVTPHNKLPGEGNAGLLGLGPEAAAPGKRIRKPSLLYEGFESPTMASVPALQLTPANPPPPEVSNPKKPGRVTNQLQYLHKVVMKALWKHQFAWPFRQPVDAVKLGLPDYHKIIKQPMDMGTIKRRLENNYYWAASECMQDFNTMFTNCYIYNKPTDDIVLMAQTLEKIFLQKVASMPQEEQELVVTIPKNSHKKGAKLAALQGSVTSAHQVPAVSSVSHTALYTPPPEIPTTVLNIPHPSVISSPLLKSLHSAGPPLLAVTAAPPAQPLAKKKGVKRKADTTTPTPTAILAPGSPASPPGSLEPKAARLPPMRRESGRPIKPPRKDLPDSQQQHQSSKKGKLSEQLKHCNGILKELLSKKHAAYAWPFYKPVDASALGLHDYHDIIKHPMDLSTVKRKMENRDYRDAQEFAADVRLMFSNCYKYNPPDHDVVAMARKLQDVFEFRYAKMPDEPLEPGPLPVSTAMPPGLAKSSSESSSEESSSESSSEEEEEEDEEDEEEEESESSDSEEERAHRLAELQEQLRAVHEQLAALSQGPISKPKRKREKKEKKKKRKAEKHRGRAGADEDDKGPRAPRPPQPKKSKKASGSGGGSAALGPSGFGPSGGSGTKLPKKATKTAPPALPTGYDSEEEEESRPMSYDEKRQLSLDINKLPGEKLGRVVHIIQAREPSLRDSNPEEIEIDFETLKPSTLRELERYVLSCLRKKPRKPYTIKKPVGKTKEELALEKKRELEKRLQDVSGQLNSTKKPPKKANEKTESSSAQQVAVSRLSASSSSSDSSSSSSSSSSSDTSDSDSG
# Protocol Text: Displacement of biotinylated tetra-acetylated histone H4 from His6-tagged BRD2 (1 to 473 aa) (unknown origin) after 1 hr by TR-FRET assay
Property Measured: IC50 (nM)
A number alone suffices; assume nM.

Before answering, review these 3 worked examples.
CC(=O)N1c2ccc(-c3ccc(C(N)=O)cc3)cc2[C@H](Nc2ccc(Cl)cc2)C[C@@H]1C (racemic) | 794
COc1ccc(-c2ccc3c(c2)[C@H](Nc2ccccc2)C[C@H](C)N3C(C)=O)cc1 (racemic) | 1260
CC(=O)N1c2ccc(-c3ccc(CN4CCCCC4)cc3)cc2[C@H](N)C[C@@H]1C (racemic) | 50100

Prompt: Using the record for CC(=O)N1c2ccc(-c3ccc(CN4CCCCC4)cc3)cc2[C@H](Nc2ccccc2)C[C@@H]1C , report its IC50.
Response: 501

Prompt: Using the record for CC(=O)N1c2ccc(-c3ccc(CO)cc3)cc2[C@H](Nc2ccccc2)C[C@@H]1C (racemic) , report its IC50.
Response: 794

Prompt: Using the record for CC(=O)N1c2ccc(-c3ccc(C(=O)O)cc3)cc2[C@H](Nc2ccc(Cl)cc2)C[C@@H]1C , report its IC50.
Response: 158

* * *

# Assay System: Histone acetyltransferase KAT2A (Homo sapiens)
# Sequence (Q92830 whole entry): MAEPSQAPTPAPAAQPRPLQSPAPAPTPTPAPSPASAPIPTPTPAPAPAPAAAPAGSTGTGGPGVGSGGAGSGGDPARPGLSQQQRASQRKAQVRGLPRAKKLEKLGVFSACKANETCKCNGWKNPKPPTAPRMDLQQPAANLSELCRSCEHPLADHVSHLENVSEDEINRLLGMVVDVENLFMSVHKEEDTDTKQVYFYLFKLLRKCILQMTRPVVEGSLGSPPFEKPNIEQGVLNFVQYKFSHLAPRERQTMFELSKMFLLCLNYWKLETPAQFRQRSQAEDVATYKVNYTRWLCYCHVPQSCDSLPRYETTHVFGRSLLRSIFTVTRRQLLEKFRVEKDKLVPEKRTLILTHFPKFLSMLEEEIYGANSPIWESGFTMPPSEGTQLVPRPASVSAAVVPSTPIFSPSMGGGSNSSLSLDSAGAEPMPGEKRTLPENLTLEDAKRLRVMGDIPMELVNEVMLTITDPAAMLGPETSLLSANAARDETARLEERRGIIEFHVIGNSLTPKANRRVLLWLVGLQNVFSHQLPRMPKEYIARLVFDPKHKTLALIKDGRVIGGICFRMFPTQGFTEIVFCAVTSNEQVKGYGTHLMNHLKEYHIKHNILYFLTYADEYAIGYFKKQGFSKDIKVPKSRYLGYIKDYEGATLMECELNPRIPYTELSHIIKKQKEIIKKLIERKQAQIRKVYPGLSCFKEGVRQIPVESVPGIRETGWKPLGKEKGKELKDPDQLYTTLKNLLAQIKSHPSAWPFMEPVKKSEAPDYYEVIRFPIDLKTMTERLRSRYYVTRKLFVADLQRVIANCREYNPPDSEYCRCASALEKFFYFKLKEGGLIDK
# Protocol Text: Inhibition of human GCN5 by BROMOscan assay
pIC50: −log10 of the molar value.
Property Measured: pIC50

Prompt: Using the record for CC(=O)N1c2ccc(-c3ccc(C(=O)O)cc3)cc2[C@H](Nc2ccc(Cl)cc2)C[C@@H]1C , report its pIC50.
Response: < 6.50

* * *

# Protocol Text: Blood clearance in rat at 1 mg/kg, iv as infusion and 3 mg/kg, po
# Type: ADME, organism-based
# Measurement Conditions: whole blood
Property Measured: clearance (L/h/kg)
A number alone suffices; assume L/h/kg.

Prompt: Using the record for CC(=O)N1c2ccc(-c3ccc(C(=O)O)cc3)cc2[C@H](Nc2ccc(Cl)cc2)C[C@@H]1C , report its clearance.
Response: 1.56

* * *

# Protocol Text: Fraction unbound in rat blood by rapid equilibrium dialysis method
# Type: ADME, tissue-based
Property Measured: fraction unbound
Kindly provide the number alone.

Prompt: Using the record for CC(=O)N1c2ccc(-c3ccc(C(=O)O)cc3)cc2[C@H](Nc2ccc(Cl)cc2)C[C@@H]1C , report its fraction unbound.
Response: 0.009

* * *

# Assay System: Bromodomain-containing protein 4 (Homo sapiens, UniProt O60885)
# Protocol Text: Displacement of biotinylated tetra-acetylated histone H4 from His6-tagged BRD4 (1 to 477 aa) (unknown origin) after 1 hr by TR-FRET assay
Below, each entry is listed with its recorded pIC50.
// pIC50: -log10(molar conc.)

Before answering, review these 4 worked examples.
CC(=O)N1c2ccc(-c3ccccc3)cc2[C@H](Nc2ccccc2)C[C@@H]1C (racemic) | 6.10
COC(=O)c1cccc(-c2ccc3c(c2)[C@H](Nc2ccc(Cl)cc2)C[C@H](C)N3C(C)=O)c1 (racemic) | 6.00
CC(=O)N1c2ccc(-c3ccccc3C)cc2[C@H](Nc2ccc(Cl)cc2)C[C@@H]1C (racemic) | 5.40
CC(=O)N1c2ccc(-c3ccc(C#N)cc3)cc2[C@H](Nc2cccc(F)c2)C[C@@H]1C (racemic) | 6.00

Prompt: Which measured pIC50 belongs to COC(=O)c1ccc(-c2ccc3c(c2)[C@H](Nc2ccccc2)C[C@H](C)N3C(C)=O)cc1 (racemic) , tested on Bromodomain-containing protein 4 (Homo sapiens, UniProt O60885)?
Response: 5.90

Prompt: Which measured pIC50 belongs to CC(=O)N1c2ccc(-c3ccc(C(=O)O)cc3)cc2[C@H](Nc2ccc(C)cc2)C[C@@H]1C (racemic) , tested on Bromodomain-containing protein 4 (Homo sapiens, UniProt O60885)?
Response: 6.20

Prompt: Which measured pIC50 belongs to COc1cccc(N[C@@H]2C[C@H](C)N(C(C)=O)c3ccc(-c4ccc(C(=O)O)cc4)cc32)c1 (racemic) , tested on Bromodomain-containing protein 4 (Homo sapiens, UniProt O60885)?
Response: 6.30

Prompt: Which measured pIC50 belongs to COc1ccc(-c2ccc3c(c2)[C@H](Nc2ccccc2)CCN3C(C)=O)cc1 (racemic) , tested on Bromodomain-containing protein 4 (Homo sapiens, UniProt O60885)?
Response: 5.60

Prompt: Which measured pIC50 belongs to CC(=O)N1c2ccc(-c3ccc(CN4CCCCC4)cc3)cc2[C@H](Nc2ccccc2)C[C@@H]1C , tested on Bromodomain-containing protein 4 (Homo sapiens, UniProt O60885)?
Response: 6.40

Prompt: Which measured pIC50 belongs to COC(=O)c1ccc(-c2ccc3c(c2)[C@H](Nc2ccc(F)cc2)C[C@H](C)N3C(C)=O)cc1 (racemic) , tested on Bromodomain-containing protein 4 (Homo sapiens, UniProt O60885)?
Response: 6.10

Prompt: Which measured pIC50 belongs to CC(=O)N1c2ccc(-c3ccc(CN4CCCCC4)cc3)cc2[C@H](Nc2ccc(Cl)cc2)C[C@@H]1C (racemic) , tested on Bromodomain-containing protein 4 (Homo sapiens, UniProt O60885)?
Response: 6.00

Prompt: Which measured pIC50 belongs to CC(=O)N1c2ccc(-c3ccc(CN4CCCCC4)cc3)cc2[C@H](NC=O)C[C@@H]1C (racemic) , tested on Bromodomain-containing protein 4 (Homo sapiens, UniProt O60885)?
Response: 5.20

* * *

# Assay System: Bromodomain-containing protein 4 (Homo sapiens, UniProt O60885)
# Protocol Text: Displacement of biotinylated tetra-acetylated histone H4 from His6-tagged BRD4 (1 to 477 aa) (unknown origin) after 1 hr by TR-FRET assay
Below, each entry is listed with its recorded pIC50.
// pIC50: -log10(molar conc.)

Before answering, review these 3 worked examples.
CC(=O)N1c2ccc(-c3ccc(C(F)(F)F)cc3)cc2[C@H](Nc2ccccc2)C[C@@H]1C (racemic) | 6.00
CC(=O)N1c2ccc(-c3cccc(CN4CCCCC4)c3)cc2[C@H](Nc2ccccc2)C[C@@H]1C (racemic) | 6.10
CC(=O)N1c2ccc(-c3cccc(C(=O)O)c3)cc2[C@H](Nc2ccc(Cl)cc2)C[C@@H]1C (racemic) | 6.10

Prompt: Using the record for CC(=O)N1c2ccc(-c3ccc(CN4CCCCC4)cc3)cc2[C@@H](Nc2ccccc2)C[C@H]1C , report its pIC50.
Response: 4.60
